biological target: KRAS G12C (Homo sapiens, UniProt P01116, G12C); construct: Kras (aa 2-169), GST; test: KRAS G12C nucleotide exchange assay (SOS1 mediated, HTRF); details: 1 hr pre-incubation at RT, read-out: IC50 (inhibition of KRas G12C)
Sequence (P01116 2-169 isoform P01116-2 G12C): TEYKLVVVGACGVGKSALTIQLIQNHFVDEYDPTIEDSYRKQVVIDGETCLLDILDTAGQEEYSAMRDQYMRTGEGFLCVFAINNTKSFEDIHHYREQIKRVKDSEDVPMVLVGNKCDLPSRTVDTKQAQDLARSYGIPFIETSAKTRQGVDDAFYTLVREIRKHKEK
pIC50: −log10 of the molar value.
Consider the following molecules; for each one, report its pIC50.

CC[C@@H]1C(=O)N(C)c2cnc(Nc3ccc(C(=O)NCCOCCN4CCN(C/C=C/C(=O)N5CCN(c6nc(OC[C@@H]7CCCN7C)nc7c6CCN(c6cccc8cccc(Cl)c68)C7)C[C@@H]5CC#N)CC4)cc3OC)nc2N1C1CCCC1 [Compound I-82] :: > 7.00

Readout pIC50 for CN(C/C=C/C(=O)N1CCN(c2nc(OC[C@@H]3CCCN3C)nc3c2CCN(c2cccc4cccc(Cl)c24)C3)C[C@@H]1CC#N)CCOCCOCCOCCOCCOCCOCCOCCOCCON(C)C(=O)N1N=C(c2cc(F)ccc2F)SC1(CCCN)c1ccccc1 (some centres unmarked) [Compound I-80] , test system KRAS G12C (Homo sapiens, UniProt P01116, G12C), was > 7.00

###

biological target: EGFR WT (amino acids 669-1011, Accession Number NP_005219.2) (Homo sapiens); construct: purchased Eurofins Discovery; host or cells: bacteria (E. coli, BL21-derived, T7 phage); assay: KdELECT binding assay (Eurofins Discovery), EGFR WT
Sequence (P00533 669-1011): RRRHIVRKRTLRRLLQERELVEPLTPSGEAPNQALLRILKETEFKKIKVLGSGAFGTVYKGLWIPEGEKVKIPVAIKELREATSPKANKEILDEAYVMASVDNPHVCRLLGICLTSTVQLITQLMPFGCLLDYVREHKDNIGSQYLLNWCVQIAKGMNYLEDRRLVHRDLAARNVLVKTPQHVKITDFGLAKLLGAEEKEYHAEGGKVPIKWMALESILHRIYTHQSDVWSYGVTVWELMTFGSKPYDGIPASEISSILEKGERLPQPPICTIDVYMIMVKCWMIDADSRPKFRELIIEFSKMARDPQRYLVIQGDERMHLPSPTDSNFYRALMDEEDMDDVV
Please respond with reported Kd for every item in the list.

// each molecule listed below needs its Kd
1. CCC1C(=O)N(C)c2cnc(Nc3ccc(C(=O)NCCOCCOCCN(C)CC=CC(=O)NC4CN(c5nc(Nc6cn(C)nc6OC)c6ncn(C)c6n5)CC4F)cc3OC)nc2N1C1CCCC1 (stereo not shown)
2. C=CC(=O)Nc1cc(Nc2nccc(-c3cn(C)c4ccccc34)n2)c(OC)cc1N(C)CCN(C)CCCON(C)C(=O)N1N=C(c2cc(F)ccc2F)S[C@@]1(CCCN)c1ccccc1
3. C=CC(=O)Nc1cc(Nc2nccc(-c3cn(C)c4ccccc34)n2)c(OC)cc1N(C)CCN(C)CCCN1CCN(CCCOc2ccc(CNc3cc(N4CCCC[C@H]4CCO)nc4c(CC)cnn34)cn2)CC1
4. C=CC(=O)Nc1cc(Nc2nccc(-c3cn(C)c4ccccc34)n2)c(OC)cc1N(C)CCN(C)CCOCCOCCOCCOCCNC(=O)c1ccc(Nc2ncc3c(n2)N(C2CCCC2)[C@H](CC)C(=O)N3C)c(OC)c1

Given back:
1: > 2500 nM; 2: 500 to 2500 nM; 3: 500 to 2500 nM; 4: 500 to 2500 nM
